assay: chemical genetic growth profiling, strain panel (AID 1159580);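 also: tested at 20 µM; growth read once vehicle control cultures reached saturation at 30 °C; 1 = growth at the plate median or of vehicle wells; lower values mean less growth of the strain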; conditions: S. cerevisiae deletion strains, growth OD, locus YPR025C, strain CCL1
Hit rate of the full screen: of about 5,500 compounds, about 2,000 (36%) were called active. Not shown: some 18% with an inconclusive outcome. Rule as the data show it: active = normalized growth mostly below about 0.91 (no sharp cut-off); inconclusive = no clear call, values can overlap the other calls; inactive = mostly above about 0.92. Some of the results follow.
Use one of these outcomes when replying: active, inactive

# Molecule, Discrete Label
rows = [
    ("O=C1Nc2ccccc2/C1=C\\c1c[nH]c2ccccc12", "active"),
    ("O=C(O/N=C1/CCCc2[nH]c3ccccc3c21)c1ccc(Cl)cc1Cl", "inactive"),
    ("O=C(O/N=C1/CCCc2[nH]c3ccccc3c21)C1CCCCC1", "inactive"),
]

What was the test verdict on O=C(NNc1cc(C(F)(F)F)cc(C(F)(F)F)c1)c1cnc2n(c1=O)CCS2 ?
inactive

What was the test verdict on O=C(OCc1ccccc1Br)c1cc([N+](=O)[O-])cc([N+](=O)[O-])c1 ?
inactive

What was the test verdict on CC(C)(C)NC(=S)N/N=C\c1cc(Br)c(O)c(Br)c1 ?
inactive

What was the test verdict on O=C1/C(=C/c2c[nH]c3ccccc23)CSc2ccccc21 ?
inactive

What was the test verdict on COc1ccccc1N1CCN(C(=O)C(C)c2ccc(CC(C)C)cc2)CC1 (centres undefined) ?
inactive

What was the test verdict on O=C1Nc2ccccc2/C1=C\c1cccc2ccccc12 ?
inactive

What was the test verdict on CO/N=C1/CC(C)(C)Cc2c(-c3ccn(C(=O)Nc4cccc(Cl)c4)n3)sc(SC)c21 ?
inactive

What was the test verdict on N#C/C(N=Cc1cc(Cl)cc(Cl)c1O)=C(\C#N)N=Cc1cc(Cl)cc(Cl)c1O ?
inactive

What was the test verdict on CCn1nc(C)cc1C(=O)Sc1cccc(Br)c1 ?
inactive

What was the test verdict on C/C(=N/NC(N)=S)c1csc(-c2ccccc2)n1 ?
inactive

What was the test verdict on CN1/C(=C/C=C/c2ccc3ccccc3[n+]2C)C=Cc2ccccc21 ?
active

What was the test verdict on N/C(=N/OC(=O)c1cnn(-c2ccc([N+](=O)[O-])cc2)c1C(F)(F)F)c1ccc(Cl)cc1 ?
inactive

What was the test verdict on O=c1cc(CSc2ccc(Cl)cc2)c2ccc(O)cc2o1 ?
inactive

What was the test verdict on Cc1cc(Br)c(O)c(/C=N\NC(=S)NC(C)(C)C)c1 ?
inactive

What was the test verdict on N/C(=N/OC(=O)c1ccc([N+](=O)[O-])cc1)c1c(Cl)cccc1Cl ?
inactive

What was the test verdict on Cc1ccc(Sc2ncccc2NS(=O)(=O)c2ccc(Cl)cc2)cc1 ?
inactive

What was the test verdict on CN(C)/C=C1\CSc2ccc(Cl)cc2C1=O ?
inactive

What was the test verdict on COC(=O)/C=C1/OC(c2ccc(OC)cc2)=CC1=O ?
active

---

experiment: chemical genetic growth profiling, strain panel (AID 1159580); conditions: S. cerevisiae deletion strains, growth OD, locus YEL061C, strain CIN8 (second series)
The whole screen tested about 5,500 compounds, of which about 2,000 (36%) were called active. About 18% were inconclusive and are not listed. Rule as the data show it: active = normalized growth mostly below about 0.91 (no sharp cut-off); inconclusive = no clear call, values can overlap the other calls; inactive = mostly above about 0.92. The list shows a part of the results.
Use one of these outcomes when replying: 1 for active, 0 for inactive

# Compound, Discrete Label
data = [
    ("C[N+]1(C)C[C@H](O)[C@H](C(=O)[O-])C1", 0),
    ("CCC(=O)NCC[C@@H]1CCc2ccc3c(c21)CCO3", 0),
    ("COc1cc2c(cc1OC)-c1c(oc3cc(O)cc(O)c3c1=O)CO2", 0),
    ("Cc1cc(N)c2ccccc2[n+]1CCCCCCCCCC[n+]1c(C)cc(N)c2ccccc21", 1),
    ("NC(=O)c1cc([N+](=O)[O-])cc([N+](=O)[O-])c1", 0),
]

What was the test verdict on COC(=O)N/N=C\c1c[n+]([O-])c2ccccc2[n+]1[O-] ?
0

What was the test verdict on CC1=CC(=O)C2C(C)(C)CCC[C@]2(C)[C@@]1(O)CCc1ccoc1 (some centres not stated) ?
0

What was the test verdict on CC1=C2C(O)C(=O)OC3CC4C(C)(C)C(=O)C=C[C@]4(C)C(CC1)[C@]23C (some centres not stated) ?
0

What was the test verdict on Cc1c(C(N)=O)cc([N+](=O)[O-])cc1[N+](=O)[O-] ?
0

What was the test verdict on Nc1ccc(S(=O)(=O)Nc2ncccn2)cc1 ?
0

What was the test verdict on NC(=O)c1ccc([N+](=O)[O-])cc1Cl ?
0

What was the test verdict on COP(N)(=O)SC (configuration not stated) ?
0

---

experiment: chemical genetic growth profiling, strain panel (AID 1159580);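 also: tested at 20 µM; growth read once vehicle control cultures reached saturation at 30 °C; 1 = growth at the plate median or of vehicle wells; lower values mean less growth of the strain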; details: S. cerevisiae deletion strains, growth OD, locus YBR021W, strain FUR4
In all, about 5,500 compounds went through this assay and about 2,000 (36%) were called active. Another 18% or so got no clear call; they are omitted. Rule as the data show it: active = normalized growth mostly below about 0.91 (no sharp cut-off); inconclusive = no clear call, values can overlap the other calls; inactive = mostly above about 0.92. The list shows a part of the results.
Use one of these outcomes when replying: 1 = active, 0 = inactive

Here are 3 compounds together with their reported answers.
# Compound, Discrete Label
records = [
    ("COc1cc(O)c2c(=O)cc(-c3ccc(OC)c(-c4c(O)cc(O)c5c(=O)cc(-c6ccc(O)cc6)oc45)c3)oc2c1", 1),
    ("COc1cc(C)c2c(=O)c3c(O)cc(OC)cc3oc2c1", 0),
    ("COc1ccc(-c2cc(=O)c3c(O)cc(O)cc3o2)cc1O", 0),
]

What was the test verdict on CC1(C)Oc2ccc3ccc(=O)oc3c2CC1O (centres undefined) ?
0

What was the test verdict on COc1ccc(-c2cc(=O)c3c(O)cc(O)c(-c4cc(-c5cc(=O)c6c(O)cc(O)cc6o5)ccc4OC)c3o2)cc1 ?
0

What was the test verdict on Oc1ccc2c3c1OC1[C@@H](O)CC[C@@]4(O)[C@@H](C2)N(CC2CCC2)CC[C@]314 (some centres undefined) ?
0

What was the test verdict on C/C=C(/C)C(=O)O[C@@H]1Cc2c(ccc3ccc(=O)oc23)OC1(C)C ?
0

What was the test verdict on Nc1nc(/C(=C/CC(=O)O)C(=O)N[C@@H]2C(=O)N3C(C(=O)O)=CCS[C@H]23)cs1 ?
0

What was the test verdict on CCCCCC(O)C1C(=O)OC(C)C(O)/C=C/C=C/C=C/C=C/C=C(\C)C(O)CC(O)CC(O)CC(O)CC(O)CC(O)CC1O (centres undefined) ?
0

---

assay: chemical genetic growth profiling, strain panel (AID 1159580);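 also: tested at 20 µM; growth read once vehicle control cultures reached saturation at 30 °C; 1 = growth at the plate median or of vehicle wells; lower values mean less growth of the strain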; details: S. cerevisiae deletion strains, growth OD, locus YLR357W, strain rsc2
About 2,000 (36%) of roughly 5,500 compounds were called active. Another 18% or so got no clear call; they are omitted. Rule as the data show it: active = normalized growth mostly below about 0.91 (no sharp cut-off); inconclusive = no clear call, values can overlap the other calls; inactive = mostly above about 0.92. This is one part of the list.
Use one of these outcomes when replying: active, inactive

# Compound, Discrete Label
records = [
    ("O=C(CCCN1CCN(c2ccccn2)CC1)c1ccc(F)cc1", "inactive"),
    ("COC1CC(O[C@H]2CC[C@]3(C=O)C4CC[C@]5(C)C(C6=CC(=O)OC6)CC[C@]5(O)C4CC[C@]3(O)C2)OC(C)C1O (stereo not given in full)", "inactive"),
    ("C=CCSCC=C", "inactive"),
    ("O=C(CCCN1CCC(O)(c2ccc(Cl)cc2)CC1)c1ccc(F)cc1", "active"),
    ("NC(=O)c1ccc([N+](=O)[O-])cc1Cl", "inactive"),
]

What was the test verdict on C=CCSC[C@@H](N)C(=O)O ?
inactive

What was the test verdict on NC(=O)c1cc([N+](=O)[O-])cc([N+](=O)[O-])c1 ?
inactive

What was the test verdict on NC[C@H]1O[C@H](OC2[C@@H](N)C[C@@H](N)[C@H](O[C@H]3O[C@H](CO)[C@@H](O)[C@H](N)[C@H]3O)[C@H]2O)[C@H](O)[C@@H](O)[C@@H]1O (stereo not given in full) ?
inactive

What was the test verdict on CO[C@H]1[C@@H](O)[C@@H](C)O[C@H](O[C@H]2CCC3(C)C4CCC5(C)[C@@H](C6=CC(=O)OC6)CC[C@]5(O)[C@@H]4CC[C@]3(O)C2)[C@@H]1O (stereo not given in full) ?
inactive

What was the test verdict on C=CCSSCC=C ?
inactive

---

test: chemical genetic growth profiling, strain panel (AID 1159580);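 also: tested at 20 µM; growth read once vehicle control cultures reached saturation at 30 °C; 1 = growth at the plate median or of vehicle wells; lower values mean less growth of the strain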; details: S. cerevisiae deletion strains, growth OD, locus YNL322C, strain KRE1, stronger effect = lower value
The whole screen tested about 5,500 compounds, of which about 2,000 (36%) were called active. Roughly 18% stayed inconclusive and do not appear here. The list shows a part of the results.
Test Readout: normalized growth
Quick one: just the number, no unit, thanks!

# Molecule, Test Readout, Observed Result
data = [
    ("O=C(CCCN1CCC(O)(c2cccc(C(F)(F)F)c2)CC1)c1ccc(F)cc1", "normalized growth", 0.882),
]

We now examine a further molecule.
Give the measured normalized growth of Cc1ccc(NC(=O)CC#N)c(C)c1 .
1.01
